Test: Solubility of Compound 1-dihydrochloride in IPA/water mixtures
Format: physicochemical
Details: IPA/water mixture, 40 °C, aqueous with cosolvent or surfactant or cyclodextrin, thermodynamic from solid, IPA/H2O (50:50), 40° C.
Where a name gives a salt, the structure may show the parent alone.
REPORTED ENDPOINT: solubility at 24 h (mg/mL)

                                   molecule   reported_endpoint  assay_value
0  NCCN[C@H]1CC[C@H](CC(=O)N[C@H]2Cc3cccc(C(=O)O)c3OB2O)CC1 [Compound 1-dihydrochloride]  solubility at 24 h          454

====

Assay: Solubility of Compound 1-dihydrochloride in IPA/water mixtures
Format: physicochemical
Conditions: IPA/water mixture, 40 °C, aqueous with cosolvent or surfactant or cyclodextrin, thermodynamic from solid, IPA/H2O (60:40), 40° C.
Structures can show the parent of a compound that is named as a salt.
REPORTED ENDPOINT: solubility at 24 h (mg/mL)

>>> df
                                   compound  assay_value
0  NCCN[C@H]1CC[C@H](CC(=O)N[C@H]2Cc3cccc(C(=O)O)c3OB2O)CC1 [Compound 1-dihydrochloride]          424
